- studyTarget: Cellular tumor antigen p53 (Homo sapiens)
- testDetails: Primary qHTS for small molecule compounds that upregulate eGFP-tagged delta133p53alpha (in N-terminal) cells. (AID 2060322);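 note: cells pre-induced with doxycycline then dosed without doxycycline; 0% = DMSO vehicle and 100% = reference activator; nearly all actives have a fitted effect of over 75% in size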
- recordedConditions: NCI-H358 eGFP-delta133p53alpha fluorescence, 24 h; hits give high values
Results filed as inconclusive are left out.
metric: activation (%)
Numeric only. Scale: %

Some solved entries appear below for comparison.
{"molecule": "CCCn1c(=O)c2[nH]c(C3CCCC3)nc2n(CCC)c1=O", "unitDescriptor": "%", "reported": -35.5}
{"molecule": "COc1cc2nccc(Oc3ccc(NC(=O)Nc4ccc(F)cc4F)c(F)c3)c2cc1OC", "unitDescriptor": "%", "reported": 5.39}
{"molecule": "NCc1c[nH]c(=S)n1[C@@H]1CCc2c(F)cc(F)cc2C1", "unitDescriptor": "%", "reported": 0}
{"molecule": "CC[C@H](C(=O)Nc1ccccc1N1CCCC1)c1ccccc1", "unitDescriptor": "%", "reported": 2.86}
{"molecule": "O=C(O)Cc1ccc2c(c1)C(=O)c1ccccc1CO2", "unitDescriptor": "%", "reported": 7.34}
{"molecule": "Fc1ccccc1CNCc1ccc(-c2ccnc3[nH]ccc23)cc1", "unitDescriptor": "%", "reported": 7.14}
{"molecule": "CCC(C)(O)C(O)C(=O)OCc1ccc(O[C@@H]2O[C@H](CO)[C@@H](O)[C@H](O)[C@H]2O)c(OC)c1 (stereo partly drawn)", "unitDescriptor": "%", "reported": -5.36}
{"molecule": "O=C(NCCCn1ccnc1)c1cc(-c2ccco2)on1", "unitDescriptor": "%", "reported": -9.07}

What value of activation has been recorded for this entry: C=C(C)[C@@H]1CC[C@]2(C(=O)O)CC[C@]3(C)[C@H](CCC4[C@@]5(C)CCC(=O)C(C)(C)C5C(O)C[C@]43C)C12 (stereo partly drawn) 13

// activation lookup, key: `COc1cc2c3cc1Oc1cc(ccc1O)C[C@@H]1c4c(cc(OC)c(O)c4Oc4ccc(cc4)C[C@@H]3N(C)CC2)CC[N+]1(C)C` 19.8

* * *

- studyTarget: Cellular tumor antigen p53 (Homo sapiens) (UniProt P04637)
- Sequence (P04637 whole entry, looked up): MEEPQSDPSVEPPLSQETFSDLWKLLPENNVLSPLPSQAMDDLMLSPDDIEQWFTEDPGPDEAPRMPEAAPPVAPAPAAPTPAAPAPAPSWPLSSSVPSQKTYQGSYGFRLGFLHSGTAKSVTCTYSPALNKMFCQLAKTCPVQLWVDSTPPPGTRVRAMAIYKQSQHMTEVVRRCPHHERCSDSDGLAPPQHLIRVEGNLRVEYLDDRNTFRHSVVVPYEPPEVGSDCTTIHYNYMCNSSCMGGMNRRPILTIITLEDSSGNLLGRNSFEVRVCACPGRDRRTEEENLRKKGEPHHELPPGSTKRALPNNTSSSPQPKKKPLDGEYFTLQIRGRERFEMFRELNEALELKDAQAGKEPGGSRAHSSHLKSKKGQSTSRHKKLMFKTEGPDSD
- testDetails: Primary qHTS for small molecule compounds that upregulate eGFP-tagged delta133p53alpha (in N-terminal) cells. (AID 2060322)
- recordedConditions: NCI-H358 eGFP-delta133p53alpha fluorescence, 24 h; hits give high values
Records with an inconclusive call do not appear.
Entries annotated with measured activation
# number only, unit % dropped from output

{"compound": "O=C1c2ccccc2S(=O)(=O)N1CCCCN1CCN(c2ncccn2)CC1", "activation [%]": 13.4}

Return reported activation; argument: CC(O)C(O)/C=C/C=C/C(=O)O[C@@H]1C=C2COC(=O)[C@]2(O)[C@@]2(C)CCCC(C)(C)C12 (stereo partly specified) -18.3

// activation lookup, key: `COc1ccc(-c2cc(=O)c3c(O)cc(O)cc3o2)cc1O` 29.3

Entry under review: `O=C(NS(=O)(=O)c1ccc(Br)s1)c1ccc(Cl)cc1Cl` . Reported activation? -12.4

* * *

Documented activation across a set of compounds
- studyTarget: Cellular tumor antigen p53 (Homo sapiens) (UniProt P04637)
- testDetails: Primary qHTS for small molecule compounds that upregulate eGFP-tagged delta133p53alpha (in N-terminal) cells. (AID 2060322);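 note: cells pre-induced with doxycycline then dosed without doxycycline; 0% = DMSO vehicle and 100% = reference activator; nearly all actives have a fitted effect of over 75% in size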
- recordedConditions: NCI-H358 eGFP-delta133p53alpha fluorescence, 24 h; hits give high values
Results filed as inconclusive are left out.
// return numeric value only (unit: %, not printed)

Consider the compound `O=C(NCCN1CCN(c2cccc3c2OCCO3)CC1)c1ccc(F)cc1` and give its measured activation. -9.07

Query (compound): `O=C(O)c1ccc(N2C(=O)/C(=C/c3ccc(-c4ccc([N+](=O)[O-])cc4)o3)C=C2c2ccccc2)cc1` ; field requested: activation 24.3

Reported activation, compound `COc1c(F)cccc1C(=O)N1C[C@@H](C)CC[C@H]1CNc1ccc(Br)cn1` : ____ -8.59

Quick check: activation of `CCN(CC)CCCCNc1ncc2c(n1)N(C)C(=O)N(c1c(Cl)c(OC)cc(OC)c1Cl)C2` ? -7.31

* * *

- studyTarget: Cellular tumor antigen p53 (Homo sapiens) (UniProt P04637)
- testDetails: Primary qHTS for small molecule compounds that upregulate eGFP-tagged delta133p53alpha (in N-terminal) cells. (AID 2060322);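 note: cells pre-induced with doxycycline then dosed without doxycycline; 0% = DMSO vehicle and 100% = reference activator; nearly all actives have a fitted effect of over 75% in size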
- recordedConditions: NCI-H358 eGFP-delta133p53alpha fluorescence, 24 h; hits give high values
Records with an inconclusive call do not appear.
metric: activation (%)
# value in %; strip the unit string

{"mol": "O=C(C1=CCN2c3c(cccc31)OC[C@H]2CN1CCOCC1)c1cccc2ccccc12", "metric": "activation", "reported": 27.7}
{"mol": "O=C1OC2(c3ccccc31)c1cc(I)c(O)c(I)c1Oc1c2cc(I)c(O)c1I", "metric": "activation", "reported": -36.8}

Read the next record carefully.
// query activation value for entry `Cc1c(C(=O)Nc2ccc(N3CCC(N4CCOCC4)CC3)c(C#N)c2)cnn1-c1ccc(Cl)cc1` 15.8

* * *

- testDetails: BET inhibitor-based combinations targeting novel dependencies in MECOM-rearranged (r) AML: HNT-34 cell line (AID 2202234); note: nearly all actives have a fitted effect of over 35% in size
- recordedConditions: HNT-34 AML viability, CellTiter-Glo luminescence, 48 h; series mostly up to 46 µM
Records with an inconclusive call do not appear. Activity calls are given as the source filed them. Calls come from the whole dose curve; as a rule, active = well fitted inhibition curve with a large enough effect; inconclusive = small, poorly fitted or top-dose-only effect; inactive = no such curve, though single readings can be large or run the other way.
Please reply with one of these outcomes: yes (1) for active, no (0) for inactive

Fill in: this test's call for `CN1CC(=O)NC1=NC(=O)Nc1cccc(Cl)c1` is ___ no (0)

Kindly provide the recorded test outcome for the following molecule: Cc1c(C)c2c(c(C)c1O)CCC(C)(COc1ccc(CC3SC(=O)NC3=O)cc1)O2 (stereo not drawn) yes (1)

Dear colleague, could you share the recorded outcome for CC(C)C(C)C=CC(C)C1CCC2C3=CC=C4CC(O)CCC4(C)C3CCC21C (stereo not drawn) when you have a moment? no (0)

* * *

- studyTarget: Retinal dehydrogenase 2 (Homo sapiens) (UniProt O94788)
- testDetails: qHTS for Inhibitors of the Aldehyde Dehydrogenase Family (ALDH1A2) Confirmation screens (AID 2061314); note: nearly all actives have a fitted effect of over 65% in size
- recordedConditions: ALDH1A2 enzyme inhibition qHTS confirmation; series mostly up to 45.9 µM
Records with an inconclusive call do not appear. Calls of active or inactive are those of the source. Calls come from the whole dose curve; as a rule, active = well fitted inhibition curve with a large enough effect; inconclusive = small, poorly fitted or top-dose-only effect; inactive = no such curve, though single readings can be large or run the other way.
Assign a class; possible classes are active, inactive

Would you mind telling me which call this test gave `CCc1ccc(/C=C2/SC(=S)NC2=O)cc1` ? inactive

What is the recorded call for this molecule in the test? `CC1(C)C[C@H]2C=C(C=O)[C@]3(C(=O)O)C[C@]3(C)[C@H]2C1` inactive

Identify the outcome logged in this assay for the molecule shown: `Cc1noc(C)c1-c1cccc(-c2nn3c(=O)cc(N4CCNCC4)nc3s2)c1` active

I would be grateful if you could indicate the recorded call for `COc1cc(O)c2c(c1)/C=C/C[C@H](O)[C@H](O)C(=O)/C=C\C[C@H](C)OC2=O` . active

Hi, do you know how `NC(=O)C1CCN(c2nc(-c3ccc(Cl)cc3)cs2)CC1` came out in this test? inactive

Hello, I am checking results. What call was entered for `NC(N)=NCCC[C@H](NC(=O)c1sccc1NS(=O)(=O)c1cccc2nsnc12)C(=O)O` ? inactive

For O=C1c2ccccc2NC(c2ccc(-c3ccc(-c4ccccc4)cc3)o2)N1O (stereo not given) , what call appears in the results of this test? active

Hi, sorry to bother you, what did the test record for `CCn1cc2nc(SCc3ccc(C)cc3)n(CCc3ccccc3)c(=O)c2n1` ? active

Just curious, what result did `O=C(O)c1ccc(N2C(=O)/C(=C/c3ccc(-c4ccc([N+](=O)[O-])cc4)o3)C=C2c2ccccc2)cc1` get here? active

Answer briefly: the call reported for `O=C(Nc1cncc(O)c1)c1cccs1` in this assay. active

* * *

- testDetails: BET inhibitor-based combinations targeting novel dependencies in MECOM-rearranged (r) AML: SET-2 cell line (AID 2202231);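 note: plate controls were DMSO treated cells for no effect and wells without cells for full effect; nearly all actives have a fitted effect of over 35% in size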
- recordedConditions: SET-2 AML cells viability, CellTiter-Glo luminescence, 48 h; hits give low values, concentration not given here
Records with an inconclusive call do not appear.
As shown below, each of these compounds has a reported viability value.
API: value field is a number in %; no unit string.

Recorded viability for `O=c1[nH]cnc2[nH]ncc12` , please? 124

Using the record for Nc1ncnc2c1C(=O)N(c1ccc(C3CCC(CC(=O)O)CC3)cc1)CCO2 (stereo not given) , report its viability. 105

* * *

- studyTarget: Cellular tumor antigen p53 (Homo sapiens)
- testDetails: Primary qHTS for small molecule compounds that upregulate eGFP-tagged delta133p53alpha (in N-terminal) cells. (AID 2060322);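 note: cells pre-induced with doxycycline then dosed without doxycycline; 0% = DMSO vehicle and 100% = reference activator; nearly all actives have a fitted effect of over 75% in size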
- recordedConditions: NCI-H358 eGFP-delta133p53alpha fluorescence, 24 h; hits give high values
- Excerpt: Assay Development and Screening Technology National Center for Advancing Translational Sciences (NCATS), National Institute of Health (NIH), Rockville, Maryland Cellular senescence (CS) is one of the hallmarks of aging and age-related diseases. […] Here we report the development and validation of a cell-based quantitative high throughput screening (qHTS) assay in 1,536-well format. […]
Records with an inconclusive call do not appear.
metric: activation (%)
Answer with a number only, understood to be in %.

Example results:
{"compound": "Cc1cc2nc(NCCCO)n(CC(=O)c3cc(C(C)(C)C)c(O)c(C(C)(C)C)c3)c2cc1C", "reported": 5}
{"compound": "CC[C@H](C)n1cc(C)c2c(C(=O)NCc3c(C)cc(C)[nH]c3=O)cc(-c3ccc(N4CCNCC4)nc3)cc21", "reported": -13}
{"compound": "CC(=O)NCCc1c[nH]c2ccc(O)cc12", "reported": 10.8}
{"compound": "NCCCS(=O)(=O)O", "reported": 14.5}
{"compound": "COc1ccc(N(C)c2nc(C)nc3ccccc23)cc1", "reported": 0.477}
{"compound": "C=C(C(=O)O)[C@@H]1CC[C@H](C)[C@@H]2CC(=O)C(C)=C2C1", "reported": -8.04}

Look at this compound and give its reported activation. `COc1ccc(NC(=O)c2ccc(-c3ccc(C(=N)N)cc3C)cc2)cc1N1CCN(C)CC1` 8.11

Which activation value belongs to `COc1cc2c(cc1OC)CN(CCc1ccc(NC(=O)c3cccc4c(=O)c5cccc(OC)c5[nH]c34)cc1)CC2` ? -17.9

Entry `CC(C)Nc1cccnc1N1CCN(C(=O)c2cc3cc(NS(C)(=O)=O)ccc3[nH]2)CC1` has what activation? -10.7

Could you tell me which activation is on file for `COC(=O)C1=CO[C@@H](O[C@@H]2O[C@H](CO)[C@@H](O)[C@H](O)[C@H]2O)[C@H]2[C@@H]1C=C[C@@]21C=C([C@H](C)O)C(=O)O1` ? 13.4

Entry under review: `C[C@@H]1COCCN1c1cc(=O)n2c(n1)N(Cc1cncc(Cl)c1)[C@H](C(F)(F)F)CC2` . Reported activation? -34.6

What value of activation has been reported for the following compound? `COc1ccc([C@H]2CNC(=O)C2)cc1OC1CCCC1` -26.3

GET /values?readout=activation&item= `OC[C@H]1O[C@@H](Oc2cc(O)c3c(c2)O[C@@H](c2ccc(O)cc2)[C@H](O)C3)[C@H](O)[C@@H](O)[C@@H]1O` 4.46

What measured activation goes with `CCNC(=O)NCCCOc1cccc(CN2CCCCC2)c1` ? 15

Fill in: activation of `O=C(c1ccccc1)c1ccccc1` is ___ 16.4

Recorded activation of `O=C1NC(=O)C(=Cc2ccc(-c3ccc(F)cc3)o2)S1` , please. -1.63

Consider the compound `NCCNCCNCCN` and give its measured activation. -9.6

Query: activation; subject: NC1=NC2(c3cc(NC(=O)c4ccc(F)cn4)ccc3F)COCC2CS1 (stereo not given) -6.68

Would you mind telling me what activation value was observed for `CCOc1ccn(-c2ccc(F)cc2)c(=O)c1C(=O)Nc1ccc(Oc2ccnc(N)c2Cl)c(F)c1` ? 49.1

I would be grateful if you could share the reported activation for `C/C(=C1\CCOC(=O)S1)N(C=O)Cc1cnc(C)nc1N` . -5.86
